- Protocol Notes: small molecules captured by biotinylated probe aFGF2 – biochemical, small-molecule microarray, fluorescence 635/667, stem cell growth factor project, primary screen (AID 1067);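 note: measures binding of biotinylated aFGF2 protein to printed compounds on slides; z-score merges feature fluorescence and signal-to-noise across triplicate slides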
- Stated Conditions: higher = more signal
Listing of entries alongside the reported composite z-score.
Readout Label: composite z-score

CCCCC(=C=CC[C@@H](O)c1ccc(CO)o1)CCO    -0.0602
CC(C)[Si](C#C[Si](C(C)C)(C(C)C)C(C)C)(O[C@H](C)c1cn(Cc2ccccc2)nn1)C(C)C    -0.106
O=C1NC(=O)C2C1C=CC(C(O)C1CC=CCC1)N2Nc1ccccn1 (stereo not given)    0.135
COC(=O)[C@@]1(Cc2ccccc2)[C@H]2c3cc(C(=O)N4CCCC4)n(Cc4c(CO)[nH]cc(C)c4=O)c3C[C@H]2CN1C(=O)c1ccccc1    0.2
CN(C)CCCCNC(=O)[C@@H]1C[C@@H]2C(=O)N[C@@H](CCCCN)C(=O)N2[C@@H]1c1ccc(O)cc1    -0.145

---

- Protocol Notes: COS7 lysate on small-molecule microarray, probe aHis, 635 nm (AID 1123);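 note: z-score combines 667nm fluorescence intensity with signal-to-noise per printed compound spot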
- Stated Conditions: COS7 cell lysate, fluorescence, higher = more signal
Listing of entries alongside the reported composite z-score.
Readout Label: composite z-score

CC(C)OC(=O)C=C1C[C@@H](c2cccc(Cl)c2)O[C@@H](c2cccc(Cl)c2)O1    1.68
COCCCNC(=O)[C@@]1(Sc2ccc(C)cc2)CC(=O)N(Cc2ccccc2Cl)[C@@H]1c1ccc(CO)cc1    1.35
O=C1O[C@H](c2ccccc2)[C@H](c2ccccc2)N2[C@H]1[C@@H](C(=O)N1CCN(c3ncccn3)CC1)[C@]1(C(=O)Nc3ccc(C#CC4=CCCCC4)cc31)[C@H]2c1ccccc1OCCO    1.88
CCOC(=O)C[C@H]1[C@H](OC(=O)c2ccc(-c3ccccc3)cc2)[C@@H](NC(=O)c2ccccc2)c2cc(OCCCO)ccc2N1C(=O)c1ccc2ccccc2n1    0.96
CCOC(=O)C[C@H]1[C@H](OC(=O)c2ccc(C(=O)c3ccccc3)cc2)[C@@H](NC(=O)c2ccccc2)c2cc(OCCCO)ccc2N1C(=O)c1ccccc1    0.702
CC(=O)Nc1cc(Br)ccc1C(=O)NCc1ccccc1    1.18
CC(c1ccccc1)C(O)C1C=CC2C(=O)N(C)C(=O)C2N1NC(=O)OC(C)(C)C (configuration not stated)    2.53

---

- Protocol Notes: growth effects on S. cerevisiae YJM789 – YJM789 clinical isolate, OD600, 24 h, basal, primary screen (AID 1089);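 note: growth of clinical yeast isolate S. cerevisiae YJM 789 seeded 1000 cells per well; test concentration not given here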
- Stated Conditions: higher = more signal, called active from +8 up or from −8 down
Readout Label: z-score

C=CC[C@]1(C(=O)NCc2ccccc2)N=C(c2ccc(OCCCO)cc2)O[C@H]1c1ccccc1CN=[N+]=[N-]    -0.755
NC(=O)NCC#Cc1ccc2c(c1)[C@]1(C(=O)N2)[C@H](C(=O)O)[C@H]2C(=O)O[C@H](c3ccccc3)[C@H](c3ccccc3)N2[C@@H]1c1ccc(O)cc1    0.0288
CCCC(=O)N(CCc1c[nH]c2ccccc12)[C@@H]1CC(C(=O)NCCO)=C[C@H](Oc2c(I)cc(CO)cc2OC)[C@H]1O    0.5
COc1ccc(CCNC(=O)[C@@]2(c3ccc([N+](=O)[O-])cc3)CC(=O)N(CC34CC5CC(CC(C5)C3)C4)[C@@H]2c2ccc(CO)cc2I)cc1    0.484
CO[C@H]1O[C@H](CO)[C@@H](OC(=O)Nc2ccc(Oc3ccccc3)cc2)[C@H](OC(=O)Nc2ccc3c(c2)OCO3)[C@@H]1OC(=O)Nc1ccc2c(c1)OCO2    2.21
CO[C@H]1O[C@H](CO)[C@@H](OC(=O)Nc2ccccc2-c2ccccc2)[C@H](OC(=O)Nc2ccccc2-c2ccccc2)[C@@H]1OC(=O)Nc1ccccc1-c1ccccc1    1.95
COCCCNC(=O)[C@@H]1c2ccccc2C(=O)N(Cc2ccccc2)[C@H]1c1ccc(CO)cc1    -1.29
CCCCN1CC=CC23O[C@@H]4C=CCOC(=O)[C@@H]4[C@H]2C(=O)N(CCCCCCO)[C@@H]3C1=O (some centres not stated)    -0.992
C=CCOC(=O)[C@H]1[C@@H]2C(=O)O[C@@H](c3ccccc3)[C@@H](c3ccccc3)N2[C@@H](c2ccc(OCCOC(=O)[C@@H]3C[C@@H]4C(=O)N5CCC[C@H]5C(=O)N4[C@@H]3c3cccc(OCCO)c3)cc2)[C@]12C(=O)Nc1ccc(I)cc12    0.151
COCC(=C=CC[C@@H](O)c1ccc(OCCO)cc1)C[C@@H](O)c1ccccn1    -0.64
CCOC(=O)C[C@H]1[C@H](OC(=O)c2ccc(-c3ccccc3)cc2)[C@@H](NC(=O)c2ccccc2)c2cc(OCCCO)ccc2N1C(=O)c1ccc2ccccc2n1    -1.04
[N-]=[N+]=Nc1ccccc1[C@H]1OC(c2ccc(OCCCO)cc2)=N[C@@]1(CCS(=O)(=O)c1ccccc1)C(=O)NCc1ccccc1    -0.832
O=C(NCCN1CCOCC1)[C@@H]1c2ccccc2C(=O)N(Cc2cc(C(F)(F)F)cc(C(F)(F)F)c2)[C@H]1c1ccc(CO)cc1    0.764
COCCOC(=O)N1C(=O)[C@@]2(c3cc(C#CC4(O)CCCCCC4)ccc31)[C@H](C(=O)Nc1nc3ccccc3s1)[C@H]1C(=O)O[C@H](c3ccccc3)[C@H](c3ccccc3)N1[C@@H]2c1ccc(OCCO)cc1    2.38
O=C(O)[C@H]1C[C@H]2C(=O)N3CCC[C@H]3C(=O)N2[C@H]1c1ccc(O)cc1    0.428
COc1ccc(C(=O)Nc2cccc(CN3C(=O)[C@]4(O[C@H](CCn5cc(CCO)nn5)[C@@H]([Si](C)(C)c5ccc(OC)cc5)[C@@H]4C)c4ccccc43)c2)cc1    0.901
COCCOC(=O)N1C(=O)[C@@]2(c3cc(C#CCCO)ccc31)[C@H](c1ccc(O)cc1)N1[C@H](c3ccccc3)[C@H](c3ccccc3)OC(=O)[C@H]1[C@@H]2C(=O)N1CCN(c2ncccn2)CC1    0.356
CCOC(=O)C1=CCC(c2ccc(F)cc2)N(S(=O)(=O)c2ccc(C)cc2)C1 (configuration not stated)    0.265
COC(=O)[C@@]1(Cc2ccc(OC)cc2)[C@H]2c3cc(C(=O)N(C)C)n(Cc4ccc(C(F)(F)F)nc4)c3C[C@H]2CN1C(=O)c1ccccc1    0.643
CCCNC(=O)[C@@H]1c2ccccc2C(=O)N(Cc2ccccc2OC)[C@H]1c1ccc(CO)cc1    0.105
CN1CCC(CCCO)=CC1c1cccs1 (configuration not stated)    -1.69
O[C@@H](Cc1ccccc1)[C@@H](/C=C/C1CC1)NCc1cccc(Cl)c1    -2.26
C=C(CCCC)/C(=C/C[C@@H](OC(C)=O)c1ccccc1OCCO)c1cc(C(=O)OC)ccc1OC    1.03
O=C1O[C@H](c2ccccc2)[C@H](c2ccccc2)N2[C@H]1[C@@H](C(=O)N1CCN(c3ncccn3)CC1)[C@]1(C(=O)Nc3ccc(C#CC4=CCCCC4)cc31)[C@H]2c1ccccc1OCCO    1.08
CCCCCCCCCCC(O)C1C=CC2C(=O)NC(=O)C2N1Nc1ccc(Cl)cc1Cl (configuration not stated)    1.52
CC(C)(C)OC(=O)CC[C@@]1(C(=O)N2CCCCC2)N=C(c2ccc(OCCCO)cc2)O[C@@H]1c1ccccc1    -1.23
CCOC(=O)[C@H]1C/C=C/C[C@H](C(=O)OCC)C(=O)O[C@H]2[C@@H](OC)O[C@H](CO)[C@@H](OC(=O)c3ccc(Br)cc3)[C@@H]2OC1=O    -0.436

The measured values listed here are drawn from PubChem BioAssay.
